test system: M. tuberculosis H37Rv; test: Minimum inhibitory concentration (MIC) in the MABA; assay type: cell-based, Mycobacterium tuberculosis; conditions: Mycobacterium tuberculosis, H37RV, Table 3; H37Rv; read-out: MIC
Readout: MIC

>>> result("CCCNC(=O)CCC(C)[C@H]1CCC2C3C(C[C@H](OC(C)=O)[C@@]21C)[C@@]1(C)CCC2(C[C@H]1C[C@H]3OC(C)=O)OOC1(CCC(c3ccccc3)CC1)OO2 (single isomer, unassigned) [Compound 1C48]")
"> 6.25 µg/mL"
>>> result("CC(=O)O[C@H]1CC2C(C3CC[C@H](C(C)CCC(N)=O)[C@]31C)[C@H](OC(C)=O)C[C@@H]1CC3(CC[C@]21C)OOC1(CCC(c2ccccc2)CC1)OO3 (single isomer, unassigned) [Compound 1C45]")
"6.25 µg/mL"
>>> result("COC(=O)CCC(C)[C@H]1CCC2C3C(C[C@H](OC(C)=O)[C@@]21C)[C@@]1(C)CCC2(C[C@H]1C[C@H]3OC(C)=O)OOC1(CCC(c3ccccc3)CC1)OO2 (single isomer, unassigned) [Compound 1B14a]")
"> 6.25 µg/mL"

----------
// reported GI50 per item
system: IGROV1 ovarian cancer cell line; assay: NCI in vitro antiproliferative screen (SRB), IGROV1; type: cell-based, human; conditions: Homo sapiens, IGROV-1; IGROV1, after 48 h
Readout: GI50

>>> result("CC(=O)O[C@H]1CC2C(C3CC[C@H](C(C)CCC(=O)O)[C@]31C)[C@H](OC(C)=O)C[C@@H]1CC3(CC[C@]21C)OOC1(CCC(c2ccccc2)CC1)OO3 (single isomer, unassigned)")
"260 nM"
>>> result("CC(=O)O[C@H]1C(=O)[C@@]2(C)[C@H]([C@H](OC(=O)c3ccccc3)[C@]3(O)C[C@H](OC(=O)[C@H](O)[C@@H](NC(=O)c4ccccc4)c4ccccc4)C(C)=C1C3(C)C)[C@]1(OC(C)=O)CO[C@@H]1C[C@@H]2O [Paclitaxel, reference compound]")
"32 nM"
>>> result("C[C@@H]1CC[C@H]2[C@@H](C)C(=O)O[C@@H]3O[C@@]4(C)CC[C@@H]1[C@]32OO4 [Artemisinin, reference compound]")
"79400 nM"
>>> result("CC(=O)O[C@H]1CC2C(C3CC[C@H](C(C)CCC(N)=O)[C@]31C)[C@H](OC(C)=O)C[C@@H]1CC3(CC[C@]21C)OOC1(CCC(c2ccccc2)CC1)OO3 (single isomer, unassigned)")
"295 nM"

----------
system: UO-31 renal cancer cell line; test: NCI in vitro antiproliferative screen (SRB), UO-31; assay type: cell-based, human; conditions: Homo sapiens; UO-31, after 48 h; read-out: LC50 (the source's name)
Readout: CC50 (µM)

>>> number("CC(=O)O[C@H]1CC2C(C3CC[C@H](C(C)CCC(N)=O)[C@]31C)[C@H](OC(C)=O)C[C@@H]1CC3(CC[C@]21C)OOC1(CCC(c2ccccc2)CC1)OO3 (single isomer, unassigned)")
4.57
>>> number("C[C@@H]1CC[C@H]2[C@@H](C)C(=O)O[C@@H]3O[C@@]4(C)CC[C@@H]1[C@]32OO4 [Artemisinin, reference compound]")
100
>>> number("CC(=O)O[C@H]1C(=O)[C@@]2(C)[C@H]([C@H](OC(=O)c3ccccc3)[C@]3(O)C[C@H](OC(=O)[C@H](O)[C@@H](NC(=O)c4ccccc4)c4ccccc4)C(C)=C1C3(C)C)[C@]1(OC(C)=O)CO[C@@H]1C[C@@H]2O [Paclitaxel, reference compound]")
100
>>> number("CC(=O)O[C@H]1CC2C(C3CC[C@H](C(C)CCC(=O)O)[C@]31C)[C@H](OC(C)=O)C[C@@H]1CC3(CC[C@]21C)OOC1(CCC(c2ccccc2)CC1)OO3 (single isomer, unassigned)")
6.73

Data provenance: patent US6906098B2
